biological target: Farnesyl Transferase (FT) (Homo sapiens, UniProt P49354+P49356); test: Biochemical assay for inhibition of farnesyl transferase (FT)
readout.type: IC90 (nM)

N#Cc1ccc2c(c1)CN(S(=O)(=O)N1CCCCC1)[C@H](Cc1ccccc1)CN2Cc1cnc[nH]1 [Compound 7B]	110

1 = Cn1cnc(S(=O)(=O)N(Cc2ccsc2)C2Cc3cc(C#N)ccc3N(Cc3cncn3C)C2)c1 (stereo not drawn) [Compound 7Q]
2 = Cn1cc(S(=O)(=O)N(Cc2ccsc2)C2Cc3cc(C#N)ccc3N(Cc3cncn3C)C2)cn1 (stereo not drawn) [Compound 7N]
3 = Cn1cncc1CN1CC(NS(=O)(=O)c2ccccn2)Cc2cc(C#N)ccc21 (stereo not drawn) [Compound 7S]
4 = COc1ccc(S(=O)(=O)N2Cc3cc(C#N)ccc3N(Cc3cnc[nH]3)C[C@H]2Cc2ccccc2)cc1 [Compound 7A]
5 = Cn1cncc1CN1CC(N(Cc2ccsc2)S(=O)(=O)c2ccccn2)Cc2cc(C#N)ccc21 (stereo not drawn) [Compound 7P]
Lookup: Please order the records by their reported IC90, lowest number first. A ranking is expressed here by listing the labels in the requested order.
Found: 5, 1, 2, 4, 3
(5: 4 nM, 1: 6 nM, 2: 9 nM, 4: 30 nM, 3: 255 nM)

1 = Cn1cncc1CN1C[C@@H](Cc2ccccc2)N(S(=O)(=O)c2cccs2)Cc2cc(C#N)ccc21 [Compound 7J]
2 = Cc1nc(CN(C2Cc3cc(C#N)ccc3N(Cc3cncn3C)C2)S(=O)(=O)c2ccccn2)cs1 (stereo not drawn) [Compound 7T]
Lookup: Please tell me which of the two, 1 or 2 , has the higher reported IC90 value. The response must carry the label of the picked entry.
Found: 2
(2: 48 nM, 1: 7 nM)

Cited source: patent US20040142888A1
